assay: NCI Yeast Anticancer Drug Screen. Data for the rad52 strain (AID 147);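 further: 0% = growth of vehicle-treated control cultures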; details: S. cerevisiae rad52 mutant growth inhibition; at 1.2 µM; stronger effect = higher value
The panel holds about 79,000 compounds, 15% with a hit somewhere; the sample as a whole holds those more often.
Consider the following compounds; for each one, report its growth inhibition.
One number for each entry, in %.

# Compound, Quantity Kind, Test Value
measured = [
    ("COc1cc2ccnc(-c3c4ccccc4c(N)c4c(OC)c(OC)ccc34)c2cc1OC", "growth inhibition", 5),
    ("COc1cccc2c1C(=O)c1c(O)c3c(c(O)c1C2=O)C[C@@](O)(C(C)=O)C[C@@H]3OC1CC(OC(C)=O)C(OC(C)=O)C(C)O1 (stereo not given in full)", "growth inhibition", -12),
    ("CCOC(=O)[C@H]1Nc2ccc(OC)cc2C2c3ccccc3CC21 (stereo not given in full)", "growth inhibition", -22),
    ("COc1ccc2c(c1)n([O-])c1ccccc1[n+]2=O", "growth inhibition", 16),
    ("Cc1cc(-c2cc(C)c(O)c(C(C)(C)C)c2)cc(C(C)(C)C)c1O", "growth inhibition", -37),
]

Quick one: give me growth inhibition for each item below, same order please.
1. O=[N+]([O-])c1cc(S(=O)(=O)Nc2ccccc2)ccc1Nc1ccccc1
2. CN(C)/C=C/c1nnc([N+](=O)[O-])s1
3. C(=Nc1ccc(-c2cc(-c3ccccc3)nc3ccc4ccccc4c23)cc1)c1ccccc1
4. CCc1c(Cl)c(C)cc(O)c1Cl
5. CS(=O)(=O)OCCN(CCOS(C)(=O)=O)c1ccc(C=Nc2ccc(-c3csc(COc4ccccc4)n3)cc2)cc1

[0, -2, 34, 4, 15]

* * *

experiment: NCI Yeast Anticancer Drug Screen. Data for the rad14 strain (AID 159);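 further: 0% = growth of vehicle-treated control cultures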; conditions: S. cerevisiae rad14 strain growth inhibition; at 100.0 µM; stronger effect = higher value
About 79,000 compounds went through this panel and 15% of them were active in at least one assay; those are over-represented in the sample as a whole.
# label = True if growth inhibition >= 90% else False

Completed entries (count: 5):
# Compound, Discrete Label
records = [
    ("N/C(=N/N=C/c1cc(Br)cc(Br)c1O)NO", "True"),
    ("COc1cc(/C=N/Nc2nnc3c4ccccc4c4ncccc4c3n2)cc(OC)c1OC", "False"),
    ("Nc1ncnc2c1ncn2C1OC(CO)CC1O (stereo not given)", "True"),
    ("Cc1nc(-c2cc3cc([N+](=O)[O-])ccc3oc2=O)cs1", "True"),
    ("CN(C)C=NC1CCC(C(C)(C)C)CC1 (stereo not given)", "True"),
]

Is the recorded value of growth inhibition equal to or greater than 90% for this compound? O=C1C(Br)=C(c2ccccc2)O/C1=C/C(=O)c1ccc(Br)cc1
True

Quick check, growth inhibition >= 90%? CC[n+]1oc(C(=O)c2ccc(Cl)cc2)c(-c2ccccc2)c1-c1ccccc1.[Cl][Fe]([Cl])([Cl])[Cl]
False

Please tell me: is the compound NC(N)=NS(=O)(=O)c1ccc(Nc2c3ccccc3nc3c(C(=O)NCCO)cccc23)cc1 at or over 90% in terms of growth inhibition?
False

I'd appreciate it if you could say whether N#CNC(N)=Nc1cc2ccccc2c2ccccc12 has growth inhibition at least equal to 90%.
True

* * *

assay: NCI Yeast Anticancer Drug Screen. Data for the rad52 strain (AID 147);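 further: 0% = growth of vehicle-treated control cultures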; conditions: S. cerevisiae rad52 mutant growth inhibition; at 33.0 µM
About 79,000 compounds went through this panel and 15% of them were active in at least one assay; those are over-represented in the sample as a whole. Active and inactive are the calls of the source. Rule as the data show it: active = growth inhibition above about 70%; inactive = the rest.
Give one outcome, nothing more. List: class 1 = active, class 0 = inactive

Below are worked cases with known answers.
# Molecule, Discrete Label
data = [
    ("C=C1CC(CCCl)(c2ccccc2)OC1=O (configuration not stated)", "class 1"),
    ("COc1ccc(C(=O)C(CN(C)C)CN(C)C)cc1", "class 0"),
    ("CS(=O)(=O)OCCN(CCOS(C)(=O)=O)c1ccc(C=Nc2ccc(-c3csc(COc4ccccc4)n3)cc2)cc1", "class 1"),
]

Dear all, I need the recorded test outcome for Cc1cc(=O)oc2c(C)c3occc(=O)c3cc12 , thank you.
class 0

Please let me know the test result on file for Oc1ccc2c(c1)C(O)CCCC2 (configuration not stated) .
class 0

Name the outcome recorded for CC(=O)ON=C1C=CC(=C(C#N)c2ccc(Cl)cc2)C=C1 in the assay.
class 0

What outcome does the record of this test show for CCOc1ccccc1N=Cc1c2ccccc2cc2ccccc12 ?
class 1
